# Measured target: human recombinant FAAH (Homo sapiens (Human), UniProt O00519)
# Sequence (O00519 whole entry): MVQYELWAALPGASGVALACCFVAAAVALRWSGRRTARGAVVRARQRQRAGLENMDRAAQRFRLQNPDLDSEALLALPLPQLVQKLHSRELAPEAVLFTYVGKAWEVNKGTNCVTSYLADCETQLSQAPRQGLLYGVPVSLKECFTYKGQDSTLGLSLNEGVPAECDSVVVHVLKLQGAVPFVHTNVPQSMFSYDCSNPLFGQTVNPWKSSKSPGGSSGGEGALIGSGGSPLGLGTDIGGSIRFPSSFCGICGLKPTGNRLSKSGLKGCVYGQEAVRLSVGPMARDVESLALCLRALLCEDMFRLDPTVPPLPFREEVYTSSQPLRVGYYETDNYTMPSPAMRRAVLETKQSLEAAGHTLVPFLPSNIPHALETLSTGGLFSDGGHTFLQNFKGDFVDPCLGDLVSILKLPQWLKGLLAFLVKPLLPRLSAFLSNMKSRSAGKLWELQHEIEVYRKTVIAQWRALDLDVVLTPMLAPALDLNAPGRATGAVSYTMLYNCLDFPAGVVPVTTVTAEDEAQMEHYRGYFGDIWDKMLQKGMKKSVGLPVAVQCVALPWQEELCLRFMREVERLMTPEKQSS
# Protocol text: In vitro inhibition of FAAH activity (fluorescent inhibitor screening kit, AMC arachidonoyl amide)
# Type: biochemical
# Condition label: human recombinant FAAH; read-out: Inhibition on FAAH activity (IC50)
Reported endpoint: IC50

The examples below pair each entry with its known result.
CN(C(=O)Oc1cccc(-c2cncc(-c3nnco3)c2)c1)C1CCCCC1 [Example 142] :: 1000 to 10000 nM
O=C(NCC1CCCCC1)Oc1ccc(O)c(-c2cncc(-c3nnn[nH]3)c2)c1 [Example 245] :: > 1000 nM
COc1ccc(OC(=O)NC2CCCC2)cc1-c1cncc(-c2nnn[nH]2)c1 [Example 253] :: > 1000 nM
COc1ccc(OC(=O)NCC2CCCCC2)cc1-c1cncc(-c2cccs2)c1 [Example 66] :: 100 to 1000 nM
CCCCCCCCNC(=O)Oc1cccc(-c2cncc(C#N)c2)c1 [Example 27] :: 10 to 100 nM

Give the measured IC50 of CCCCCCCCNC(=O)Oc1cc(OC)cc(-c2cncc(-c3nnco3)c2)c1 [Example 174] . 1 to 10 nM

Give the measured IC50 of CCCCCCCNC(=O)Oc1ccc(O)c(-c2cncc(-c3nnco3)c2)c1 [Example 156] . 1 to 10 nM

Give the measured IC50 of COc1ccc(OC(=O)NC2CCCC2)cc1-c1cncc(-c2nncs2)c1 [Example 216] . 100 to 1000 nM

Give the measured IC50 of O=C(NCc1ccccc1)Oc1cccc(-c2cncc(-c3nnn[nH]3)c2)c1 [Example 240] . > 1000 nM
